Study the reported pKi values for Glutamate receptor ionotropic, NMDA 2B (Homo sapiens) given below; they originate from different publications.
Scale explanation: pKi corresponds to minus log10 of a concentration expressed in moles per litre.

O=[N+]([O-])c1ccc2c(c1)CCC(NCCCc1ccccc1)CC2 (configuration not stated); 8.80

According to the records, this compound O=[N+]([O-])c1ccc2c(c1)CCC(NCCc1ccccc1)CC2 (configuration not stated) displays pKi of 8.48

For this compound ( COc1ccc2c(c1)CCC(NCCCc1ccccc1)CC2 (configuration not stated) ), measured pKi is 7.96

Lookup result for O=[N+]([O-])c1ccc2c(c1)CCC(NCCCCc1ccccc1)CC2 (configuration not stated) ; measured pKi: 8.42

Sure, the documented pKi for COc1ccc2c(c1)CC[C@H](NCCCc1ccccc1)C[C@@H]2O (relative stereo) is 7.80

Documented pKi of O[C@H]1Cc2ccccc2C2(CCC(N3CCN(C4CCCCC4)CC3)CC2)O1 (some centres not stated) : 7.47

Field pKi (entry FC(CNC1CCc2ccccc2CC1)Cc1ccccc1 (configuration not stated) ) reads 7.77
